half-life overview
measurement description: Rodent pharmacokinetic study
Format: in vivo, Male Wistar rats
cond: whole blood; Wistar male rat, per oral, 3 mg/kg, water, blood

compound	u	half-life
CCC(=O)N1CCc2nc(OC3CCN(C4CCC4)CC3)sc2C1.O=C(O)C(O)C(O)C(=O)O [Example 1]	min	57
O=C(C1CCC1)N1CCc2nc(OC3CCN(C4CCC4)CC3)sc2C1.O=C(O)C(O)C(O)C(=O)O [Example 5]	min	34.2
O=C(C1CC1)N1CCc2nc(OC3CCN(C4CCC4)CC3)sc2C1.O=C(O)C(O)C(O)C(=O)O [Example 4]	min	100
O=C(C1CCOCC1)N1CCc2nc(OC3CCN(C4CCC4)CC3)sc2C1 [Example 28]	min	57
CC(C)C(=O)N1CCc2nc(OC3CCN(C4CCC4)CC3)sc2C1.O=C(O)C(O)C(O)C(=O)O [Example 22]	min	32.4
O=C(CN1CCOCC1)N1CCc2nc(OC3CCN(C4CCC4)CC3)sc2C1.O=C(O)C(O)C(O)C(=O)O [Example 12]	min	171
